target: KRAS G12D (Homo sapiens, UniProt P01116, G12D); construct: aa1-188 KRAS WT, HRAS WT, NRAS WT, or KRAS containing the G12D; experiment: HTRF nucleotide exchange assay, KRAS G12D; settings: HTRF nucleotide exchange assay (NEA), class symbols
Sequence (P01116 1-188 isoform P01116-2 G12D): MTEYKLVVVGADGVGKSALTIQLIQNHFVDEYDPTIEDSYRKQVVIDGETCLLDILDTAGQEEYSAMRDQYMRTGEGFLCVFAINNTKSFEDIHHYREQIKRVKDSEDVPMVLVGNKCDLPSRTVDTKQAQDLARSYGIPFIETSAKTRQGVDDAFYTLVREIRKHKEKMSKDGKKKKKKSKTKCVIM
readoutLabel: IC50

CCc1c(F)ccc2cc(O)cc(-c3c(C)c4nc(OC[C@@]56CCCN5C[C@H](F)C6)nc(N5CC6CCC5CN6)c4c4cn(C)nc34)c12 (stereo partly drawn) [Example 216]; ≤ 10 nM

Look up IC50 for this compound: CCc1c(F)ccc2cc(O)cc(-c3c(F)c4nc(OCC5(CN6CCCCC6)CC5)nc(N5CCOCC(C)(O)C5)c4c4cn(C)nc34)c12 (stereo not drawn) [Example 172]
≤ 10 nM

If you can, please state the reported IC50 value of CN(C)C(=O)c1cc2n(n1)CCCN(c1nc(OC[C@@]34CCCN3C[C@H](F)C4)nc3cc(-c4cc(O)ccc4C#N)c4nn(C)cc4c13)C2 [Example 62] .
10 to 100 nM

Which IC50 is listed for CCc1c(F)ccc2cc(O)cc(-c3cc4nc(OC[C@@]56CCCN5C[C@H](F)C6)nc(N5CCC(C)C(O)C5)c4c4cn(C)nc34)c12 (stereo partly drawn) [Example 133] ?
10 to 100 nM

Entry CN(C)C(=O)c1cc2n(n1)CCCN(c1nc(OC[C@@]34CCCN3C[C@H](F)C4)nc3cc(-c4cc(O)c(F)c5ccccc45)c4nn(C)cc4c13)C2 [Example 61] : reported IC50 = ?
10 to 100 nM

Look at this compound and give its reported IC50. CCc1c(F)ccc2cc(O)cc(-c3cc4nc(OC[C@@]56CCCN5C[C@H](F)C6)nc(N5CC6CCC(C5)N6CC(C)O)c4c4cn(C)nc34)c12 (stereo partly drawn) [Example 91]
≤ 10 nM

Form field: reported IC50 of C#Cc1c(F)ccc2cc(O)cc(-c3c(C)c4nc(OC[C@@]56CCCN5C[C@H](F)C6)nc(N5CCOCC(C)(O)C5)c4c4cn(C)nc34)c12 (stereo partly drawn) [Example 185]
10 to 100 nM

Looking for the measured IC50 of CCc1c(F)ccc2cc(O)cc(-c3cc4nc(OC[C@@]56CCCN5C[C@H](F)C6)nc(N5CC6CCC(C5)N6)c4c4cn(C)nc34)c12 [Example 15] , can you help?
≤ 10 nM

IC50 for CCc1c(F)ccc2cc(O)cc(-c3cc4nc(OCC56CCCN5CCC6)nc(N5CCCOCC5)c4c4[nH]ncc34)c12 [Example 47] ?
100 to 10000 nM

Sample C#Cc1c(F)ccc2cc(O)cc(-c3c(F)c4nc(OC[C@@]56CCCN5C[C@H](F)C6)nc(N5CCCn6nc(C(=O)N(C)C)cc6C5)c4c4cn(C)nc34)c12 [Example 93] — what was its IC50?
≤ 10 nM

I am curious: what IC50 value has been reported for CCc1c(F)ccc2cc(O)cc(-c3c(F)c4nc(OCC5(CN(C)C)CCC5)nc(N5CCOCC(C)(O)C5)c4c4cn(C)nc34)c12 (stereo not drawn) [Example 222] ?
≤ 10 nM

What value of IC50 has been reported for the following compound? CCc1c(F)ccc2cc(O)cc(-c3c(F)c4nc(OC[C@@]56CCCN5C[C@H](F)C6)nc(N5CC6CCC5CN6)c4c4cn(C)nc34)c12 (stereo partly drawn) [Example 179]
≤ 10 nM

* * *

biological target: KRAS G12D (Homo sapiens, UniProt P01116, G12D); construct: aa1-188 KRAS WT, HRAS WT, NRAS WT, or KRAS containing the G12D; assay: HTRF nucleotide exchange assay, KRAS G12D; settings: HTRF nucleotide exchange assay (NEA), class symbols
IC50 values, listed per item

CCc1c(F)ccc2cc(O)cc(-c3c(C)c4nc(OC[C@@H]5CCCN5C)nc(N5CCOCC(C)(O)C5)c4c4cn(C)nc34)c12 (stereo partly drawn); ≤ 10 nM
CCc1c(F)ccc2cc(O)cc(-c3cc4nc(OCC5CCCN5C)nc(N5CCCOCC5)c4c4cn(C)nc34)c12 (stereo not drawn); 10 to 100 nM
C#Cc1c(F)ccc2cc(O)cc(-c3c(C)c4nc(OC[C@@]56CCCN5C[C@H](F)C6)nc(N5CCCn6nc(C(=O)N(C)C)cc6C5)c4c4cn(C)nc34)c12; ≤ 10 nM
CCc1c(F)ccc2cc(O)cc(-c3c(F)c4nc(OC[C@@]56CCCN5C[C@H](F)C6)nc(N5CCC(C#N)CC5)c4c4cn(C)nc34)c12; 10 to 100 nM
CCc1c(F)ccc2cc(O)cc(-c3cc4nc(OC[C@@]56CCCN5C[C@H](F)C6)nc(N5CCOCC(O)C5)c4c4cn(C)nc34)c12 (stereo partly drawn); ≤ 10 nM

Below: the item to evaluate.
Fill in the recorded IC50 for this compound, with KRAS G12D (Homo sapiens, UniProt P01116, G12D) as test system: CCc1c(F)ccc2cc(O)cc(-c3c(C)c4nc(OC[C@@]56CCCN5C[C@H](F)C6)nc(N5CCCOCC5)c4c4cn(C)nc34)c12
≤ 10 nM

* * *

pIC50: −log10 of the molar value.
Endpoint: pIC50. System: KRAS WT (Homo sapiens, UniProt P01116). Items follow.
Sequence (P01116 1-188 isoform P01116-2): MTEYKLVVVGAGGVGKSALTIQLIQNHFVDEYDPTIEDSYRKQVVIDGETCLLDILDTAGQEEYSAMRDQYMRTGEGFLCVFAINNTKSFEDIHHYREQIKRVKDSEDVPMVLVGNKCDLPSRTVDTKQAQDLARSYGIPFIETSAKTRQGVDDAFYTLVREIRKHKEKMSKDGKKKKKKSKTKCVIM

Please review the entries below; each comes with its answer.
CCc1c(F)ccc2cc(O)cc(-c3c(C)c4nc(OC[C@@]56CCCN5C[C@H](F)C6)nc(N5CCCn6nc(C(=O)N(C)C)c(F)c6C5)c4c4cn(C)nc34)c12; ≥ 8.00
CCc1c(F)ccc2cccc(-c3cc4nc(OC[C@@]56CCCN5C[C@H](F)C6)nc(N5CCCn6nc(C(=O)N(C)C)cc6C5)c4c4cn(C)nc34)c12; 7.00 to 8.00

Okay, next one:
Form entry - test system: KRAS WT (Homo sapiens, UniProt P01116); read-out: pIC50; molecule: C#Cc1c(F)ccc2cc(O)cc(-c3c(C)c4nc(OC[C@@]56CCCN5C[C@H](F)C6)nc(N5CCCn6nc(C(=O)N(C)C)cc6C5)c4c4cn(C)nc34)c12
≥ 8.00

* * *

Entries with their measured IC50, system KRAS WT (Homo sapiens, UniProt P01116):

// solved cases for IC50 follow
CCc1c(F)ccc2cc(O)cc(-c3cc4nc(OC[C@@]56CCCN5C[C@H](F)C6)nc(N5CCCn6nc(C(=O)N7CCOCC7)cc6C5)c4c4cn(C)nc34)c12; ≤ 10 nM
C#Cc1c(F)ccc2cc(O)cc(-c3c(C)c4nc(OC[C@@]56CCCN5C[C@H](F)C6)nc(N5CCC[C@@](C)(O)C5)c4c4cn(C)nc34)c12; ≤ 10 nM
CCc1c(F)ccc2cc(O)cc(-c3c(C)c4nc(OC[C@@]56CCCN5C[C@H](F)C6)nc(N5CC6CCC(C5)N6)c4c4cn(C)nc34)c12; ≤ 10 nM

What does the data say about its IC50? Entry: CCc1c(F)ccc2cc(O)cc(-c3c(F)c4nc(OCC5(CN6CCC(OC)CC6)CC5)nc(N5CCOCC(C)(O)C5)c4c4cn(C)nc34)c12 (stereo not drawn)
≤ 10 nM

* * *

These records show IC50 for UniProt P01116.

Cc1cc(N)nc(-c2cc3nc(OC[C@@]45CCCN4C[C@H](F)C5)nc(N4CCCn5nc(C(=O)N(C)C)cc5C4)c3c3cn(C)nc23)c1C(F)(F)F; 100 to 10000 nM

Lab note: need IC50 with UniProt P01116 for entry CCc1c(F)ccc2cc(O)cc(-c3cc4nc(OC[C@@]56CCCN5C[C@H](F)C6)nc(N5CC6CCC(C5)C6C#N)c4c4cn(C)nc34)c12 (stereo partly shown) , please look it up.
10 to 100 nM

GET /values?readout=IC50&system=UniProt P01116&item= CCc1c(F)ccc2cc(O)cc(-c3c(F)c4nc(OC[C@@]56CCCN5C[C@H](F)C6)cc(N5CCCOCC5)c4c4cn(C)nc34)c12
100 to 10000 nM

What IC50 appears in the records for this compound with UniProt P01116? CCc1c(F)ccc2cc(O)cc(-c3c(F)c4nc(OCC5(CO)CC5)nc(N5CCOCC(C)(O)C5)c4c4cn(C)nc34)c12 (stereo not shown)
≤ 10 nM

* * *

Record: pIC50 reported on KRAS WT (Homo sapiens, UniProt P01116).
pIC50: −log10 of the molar value.

Answered examples (10):
CCc1c(F)ccc2cc(O)cc(-c3cc4nc(OC[C@@]56CCCN5C[C@H](F)C6)nc(N5CCNCC5)c4c4cn(C)nc34)c12; 5.00 to 7.00
CCc1c(F)ccc2cc(O)cc(-c3cc4nc(OCC5CCCN(C)C5)nc(N5CCCOCC5)c4c4cn(C)nc34)c12 (stereo not drawn); 5.00 to 7.00
CCc1c(F)ccc2cc(O)cc(-c3cc4nc(OC[C@@]56CCCN5C[C@H](F)C6)nc(N5CC6C(=O)NC(=O)C6C5)c4c4cn(C)nc34)c12 (stereo partly drawn); ≥ 8.00
CCc1c(F)ccc2cc(O)cc(-c3cc4nc(OC[C@@]56CCCN5C[C@H](F)C6)nc(N5CCCC6(CC(O)C6)C5)c4c4cn(C)nc34)c12 (stereo partly drawn); ≥ 8.00
CCc1c(F)ccc2cc(O)cc(-c3c(F)c4nc(OCC5(CN(CC)CC)CC5)nc(N5CCOCC(C)(O)C5)c4c4cn(C)nc34)c12 (stereo not drawn); ≥ 8.00
CCc1c(F)ccc2cc(O)cc(-c3c(F)c4nc(OC[C@@]56CCCN5C[C@H](F)C6)nc(N5CCC(O)CC5)c4c4cn(C)nc34)c12; ≥ 8.00
CCc1c(F)ccc2cc(O)cc(-c3cc4nc(OC[C@@]56CCCN5C[C@H](F)C6)nc(N5CCCn6nc(CN(C)C)cc6C5)c4c4cn(C)nc34)c12; 7.00 to 8.00
C#Cc1c(F)ccc2cc(O)cc(-c3cc4nc(OC[C@@]56CCCN5C[C@H](F)C6)nc(N5CCOCC(C)(O)C5)c4c4cn(C)nc34)c12 (stereo partly drawn); ≥ 8.00
CCc1c(F)ccc2cc(O)cc(-c3c(C)c4nc(OC[C@@]56CCCN5C[C@H](F)C6)nc(N5CCCn6nc(C(=O)N(C)C)cc6C5)c4c4cn(C)nc34)c12; ≥ 8.00
CCc1c(F)ccc2cc(O)cc(-c3cc4nc(OC[C@@]56CCCN5C[C@H](F)C6)nc(N5CCCn6nc(C)cc6C5)c4c4cn(C)nc34)c12; 7.00 to 8.00

Which pIC50 value is on record for CCc1c(F)ccc2cc(O)cc(-c3c(F)c4nc(OCC5(CN(C)C)CCC5)nc(N5CCOCC(C)(O)C5)c4c4cn(C)nc34)c12 (stereo not drawn) ?
≥ 8.00

Requested field: pIC50. Item: CCc1c(F)ccc2cc(O)cc(-c3c(F)c4nc(OCC5(CN6CCCCC6)CC5)nc(N5CCOCC(C)(O)C5)c4c4cn(C)nc34)c12 (stereo not drawn)
≥ 8.00

Consider the compound shown here: C#CC1(O)CCCN(c2nc(OC[C@@]34CCCN3C[C@H](F)C4)nc3cc(-c4cc(O)cc5ccc(F)c(CC)c45)c4nn(C)cc4c23)C1 (stereo partly drawn) What is its recorded pIC50?
7.00 to 8.00
